# system.tested: NADPH oxidase 5 (Homo sapiens) (UniProt Q96PH1)
# Sequence (Q96PH1 whole entry, looked up): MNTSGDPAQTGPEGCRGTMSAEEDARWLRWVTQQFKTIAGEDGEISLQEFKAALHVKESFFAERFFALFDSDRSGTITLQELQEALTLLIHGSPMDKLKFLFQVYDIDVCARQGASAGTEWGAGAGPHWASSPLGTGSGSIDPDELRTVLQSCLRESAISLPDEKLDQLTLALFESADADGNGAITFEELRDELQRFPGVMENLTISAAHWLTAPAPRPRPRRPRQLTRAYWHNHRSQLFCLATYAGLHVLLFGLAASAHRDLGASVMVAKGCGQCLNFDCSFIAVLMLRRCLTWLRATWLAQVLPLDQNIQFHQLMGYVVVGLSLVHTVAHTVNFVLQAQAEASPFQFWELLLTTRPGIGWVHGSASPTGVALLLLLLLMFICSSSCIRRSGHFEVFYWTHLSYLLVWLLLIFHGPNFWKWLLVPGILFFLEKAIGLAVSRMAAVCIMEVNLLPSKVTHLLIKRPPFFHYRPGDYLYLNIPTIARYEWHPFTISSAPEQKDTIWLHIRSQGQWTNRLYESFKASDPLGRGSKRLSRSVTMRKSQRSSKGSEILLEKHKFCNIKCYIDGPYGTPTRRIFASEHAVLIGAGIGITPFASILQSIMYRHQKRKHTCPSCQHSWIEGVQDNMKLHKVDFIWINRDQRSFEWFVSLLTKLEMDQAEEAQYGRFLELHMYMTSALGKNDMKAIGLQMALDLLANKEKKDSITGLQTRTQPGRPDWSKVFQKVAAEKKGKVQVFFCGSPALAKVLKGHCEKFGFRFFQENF
# method.description: NOX5-dependent H2O2 signal modulators, primary screen, NOX inhibitor project, cell-based, HEK293-NOX5, Amplex Red fluorescence (AID 1161)
# setup.conditions: HEK293-NOX5, ionomycin, 45 min, higher = more signal
result.type: z-score
Write no unit; give the number alone.

These solved cases illustrate the format of a correct answer.
>>> df
                              line_notation  result_type  quantitative_readout
0  CCO[C@H](c1cc(OC)cc([N+](=O)[O-])c1OC)[C@H](C)C=CCC(=O)OC      z-score                 0.893
1  CO[C@@H]1COC(=O)[C@@H]2CCCN2C(=O)[C@@H](C)COC(=O)CC=C[C@H]1C      z-score                0.0919
2  CC(C)=CCCC(C)=CCON=C1C[C@@H](O)[C@@H](O)[C@@H]2[C@@H]3C(=O)N(C(C)(C)C)C(=O)[C@@H]3CC[C@@H]12      z-score                -0.411

Now let's try a different one.
For the compound CO[C@H]1COC(=O)CC=C[C@H](C)[C@@H](OC)COC(=O)[C@@H](C)COC(=O)CC=C[C@@H]1C , give its measured z-score value.
0.18
